The reported numbers originate from patent US4093617A.

The following compounds are shown together with reported minimal effective dose values.
tested on: male Sprague-Dawley rats; assay: Antianxiety activity: stimulation of drinking activity of the rat in a passive avoidance behavioral paradigm; assay type: in vivo; details: ip, 0.5 h, i.p., read-out: Dose wherein the first statistically behavioral difference (p<0.05 or less) from the control group occurs

A selection of reference data follows.
| compound | measured.result |
| --- | --- |
| Cc1cc(C)n2ncc(I)c2n1 | 20 mg/kg |
| Cc1cc(C)n2ncc(F)c2n1 | 40 mg/kg |
| Cc1cc(C)n2ncc(Br)c2n1 | 10 mg/kg |
| Cc1cc(C)n2ncc(Cl)c2n1 | 10 mg/kg |

Query compound follows.
Query string: Entry Cc1cc(C)n2nccc2n1 [H, 5,7-dimethyl pyrazolo[1,5-a]pyrimidine, reference compound] has what minimal effective dose?
Result string: 40 mg/kg
